# Tgt: UniProt Q9NR97
# Experimental Protocol: HEK293 NFKB reporter cells expressing human TLR8 (HEK Reporter Assay)
# Test Context: read-out: HEK293 hTLR8 EC50
# Method: Each compound was synthesized and purified by the methods in the Examples provided herein, characterized by mass spectrometry, and shown to have the mass indicated. Activity against HEK293 NFKB reporter cells expressing human TLR7 or human TLR8 was measured according to method described in Example 67. Example 67: HEK Reporter Assay HEK293 reporter cells expressing human TLR7 or human TLR8 were purchased from Invivogen and vendor protocols were followed for cellular propagation and experimentation. […]
pEC50: −log10 of the molar value.
Measure: pEC50

Would you please look over these solved cases?
Item Smiles	Tgt	pEC50
CCCN(Cc1ccc(CN2CCN(C(=O)OC(C)(C)C)CC2)cc1)C(=O)C1=Cc2ccc(-c3cccc(S(=O)(=O)N4CC(CO)C4)c3)cc2N=C(N)C1	UniProt Q9NR97	5.99
CCCN(CCC)C(=O)C1=Cc2ccc(-c3cccc(S(=O)(=O)NC(=O)c4ccccc4)c3)cc2N=C(N)C1	UniProt Q9NR97	< 5.05
CCCN(Cc1ccc(CN(C)C)cc1)C(=O)C1=Cc2ccc(-c3cccc(S(=O)(=O)N4CC(CN)C4)c3)cc2N=C(N)C1	UniProt Q9NR97	< 5.05
CCCN(CCc1c[nH]cn1)C(=O)C1=Cc2ccc(-c3cccc(S(=O)(=O)N4CC(CO)C4)c3)cc2N=C(N)C1	UniProt Q9NR97	< 5.05
CCCN(CCC)C(=O)C1=Cc2ccc(C(=O)COC)cc2N=C(N)C1	UniProt Q9NR97	5.23

Short answer on UniProt Q9NR97 for `CCCNC(=O)C1=Cc2ccc(-c3cccc(S(=O)(=O)N4CC(CO)C4)c3)cc2N=C(N)C1` , pEC50: < 5.05

Short answer on UniProt Q9NR97 for `CCCN(CCC)C(=O)C1=Cc2ccc(-c3cc(C(F)(F)F)cc(S(=O)(=O)N4CC(CN(C)C)C4)c3)cc2N=C(N)C1` , pEC50: < 5.05

* * *

# Tgt: human TLR8 (Homo sapiens)
# Sequence (Q9NR97 27-1041): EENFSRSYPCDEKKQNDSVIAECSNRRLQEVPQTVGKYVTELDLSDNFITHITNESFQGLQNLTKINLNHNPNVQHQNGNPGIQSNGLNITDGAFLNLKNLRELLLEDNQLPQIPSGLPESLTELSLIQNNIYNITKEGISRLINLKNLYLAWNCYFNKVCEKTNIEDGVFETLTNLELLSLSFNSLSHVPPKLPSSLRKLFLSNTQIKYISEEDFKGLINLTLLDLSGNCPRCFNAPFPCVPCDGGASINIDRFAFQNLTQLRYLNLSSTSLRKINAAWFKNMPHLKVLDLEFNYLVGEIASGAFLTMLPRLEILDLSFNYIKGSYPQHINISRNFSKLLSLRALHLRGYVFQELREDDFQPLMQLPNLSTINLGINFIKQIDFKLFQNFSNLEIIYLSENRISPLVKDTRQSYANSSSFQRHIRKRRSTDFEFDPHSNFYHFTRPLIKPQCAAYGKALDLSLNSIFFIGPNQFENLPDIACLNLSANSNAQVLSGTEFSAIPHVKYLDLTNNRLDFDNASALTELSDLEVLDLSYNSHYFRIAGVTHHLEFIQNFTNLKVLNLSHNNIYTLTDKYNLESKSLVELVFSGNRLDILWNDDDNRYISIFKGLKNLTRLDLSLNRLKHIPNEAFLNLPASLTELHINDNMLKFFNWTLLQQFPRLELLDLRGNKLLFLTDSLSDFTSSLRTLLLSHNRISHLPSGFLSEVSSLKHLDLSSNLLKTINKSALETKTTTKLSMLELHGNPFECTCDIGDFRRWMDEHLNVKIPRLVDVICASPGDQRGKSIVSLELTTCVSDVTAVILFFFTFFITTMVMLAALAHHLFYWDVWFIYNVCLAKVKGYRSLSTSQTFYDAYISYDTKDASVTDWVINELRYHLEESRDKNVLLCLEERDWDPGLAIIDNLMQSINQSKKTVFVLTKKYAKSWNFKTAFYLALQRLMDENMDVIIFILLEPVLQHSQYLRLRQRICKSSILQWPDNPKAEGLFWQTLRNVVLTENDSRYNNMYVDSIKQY
# Experimental Protocol: HEK293 NFKB reporter cells expressing human TLR8 (HEK Reporter Assay)
# Test Context: read-out: HEK293 hTLR8 EC50
pEC50: −log10 of the molar value.
Measure: pEC50

Compound	Tgt	pEC50
CCCN(CCC)C(=O)C1=Cc2ccc(-c3cccc(S(=O)(=O)Nc4nccs4)c3)cc2N=C(N)C1 [Bz-35]	human TLR8 (Homo sapiens)	< 5.05

The compound identified as CCN(CC)C(=O)C1=Cc2ccc(-c3cccc(S(=O)(=O)N4CC(CO)C4)c3)cc2N=C(N)C1 [Bz-50] registered its pEC50 at < 5.05

The compound identified as CCCN(CCc1ccc(OC)cc1)C(=O)C1=Cc2ccc(-c3cccc(S(=O)(=O)N4CC(CN)C4)c3)cc2N=C(N)C1 [Bz-61] registered its pEC50 at 5.23
